Entries annotated with measured IC50
- System: Aβ40
- ASSAY REMARKS: In vitro BACE cell-based assay (Aβ40 sandwich ELISA, cells stably expressing APP)
- CONDITIONS USED: Homo sapiens, HEK293, average IC50, cell assay, HEK cells
- Procedure: In Vitro BACE Cell-Based Assay […] Cells stably expressing Amyloid Precursor Protein (APP) were plated at a density of 40K cells/well in 96 well plates (Costar). The cells were cultivated for 24 hours at 37° C. and 5% CO2 in DMEM supplemented with 10% FBS. […] The IC50 of the compound was calculated from the percent of control or percent inhibition of Aβ40 as a function of the concentration of the test compound. […]

Recorded results for 6 compounds are shown here.
COMPOUND	IC50
CC(C)(C)COc1cc2c(cn1)Oc1ccc(-c3cccnc3F)cc1[C@@]21COCC(N)=N1	1.1 nM
CC(C)(C)C#Cc1cnc2c(c1)[C@]1(COCC(N)=N1)c1cc(-c3cncnc3)c(F)cc1O2	0.6 nM
COc1cc2c(cn1)Oc1ccc(-c3cccnc3)cc1[C@@]21COCC(N)=N1	5.1 nM
CC(C)(C)COc1ccc2c(c1)[C@]1(COCC(N)=N1)c1cc(-c3cccnc3F)ccc1O2	15.5 nM
NC1=N[C@]2(COC1)c1cc(-c3cccnc3F)ccc1Oc1c(F)cc(N3CCOCC3)cc12 [35B]	86.2 nM
NC1=N[C@@]2(COC1)c1cc(-c3cccnc3F)ccc1Oc1c2cc(N2CCC(F)(F)CC2)nc1F [Example 129, 2,2,2-trifluoroacetate]	4.9 nM

Let me know recorded IC50 for NC1=N[C@@]2(CCO1)c1cc(-c3cccnc3F)ccc1Oc1cnc(-c3cccnc3)cc12 , thanks.
4.1 nM

* * *

// pIC50 collected for BACE (Homo sapiens)
Give only the number. pIC50 is defined as minus log10 of concentration in molar units.

COMPOUND	TARGET ENTITY	pIC50
NC1=N[C@@]2(CCO1)c1cc(-c3cccnc3F)ccc1Oc1c(F)cc(N3CCC(F)(F)CC3)cc12	BACE (Homo sapiens)	8.36
NC1=N[C@@]2(COC1)c1cc(-c3cccnc3F)ccc1Oc1cnc([C@H]3CCCOC3)cc12	BACE (Homo sapiens)	8.41
CC(C)(F)COc1cc(F)c2c(c1)[C@]1(COCC(N)=N1)c1cc(-c3cccnc3F)ccc1O2 [Example 37A]	BACE (Homo sapiens)	9.70

Let me know recorded pIC50 for NC1=N[C@@]2(COC1)c1cc(-c3cc(Cl)ccc3F)ccc1Oc1ncc(N3CC4CCC(C3)O4)cc12 , thanks.
8.89

* * *

// IC50 collected for BACE (Homo sapiens, UniProt P56817)
Reply with just the number (in nM).

COMPOUND	IC50 / nM
CC(C)(C)COc1cc2c(cn1)Oc1ccc(-c3cccnc3)cc1[C@@]21COCC(N)=N1 [Example 119]	0.6
COc1cc(F)c2c(c1)[C@@]1(CCSC(N)=N1)c1cc(-c3cccnc3F)ccc1O2 (racemic) [compound 191]	87.3
NC1=N[C@@]2(CCO1)c1cc(-c3cncc(F)c3)ccc1Oc1c2cc(C2=CCOCC2)nc1F [compound 228]	0.3
NC1=N[C@@]2(CCO1)c1cc(-c3cncc(F)c3)ccc1Oc1cnc(-c3ccnc(F)c3)cc12 [Example 145]	5
CC(C)(C)C#Cc1cnc2c(c1)[C@]1(COCC(N)=N1)c1cc(-c3cccnc3)ccc1O2 [Example 52]	0.4

Enter IC50 (test system BACE (Homo sapiens, UniProt P56817)) for NC1=NC2(CCO1)c1cc(-c3cccnc3)ccc1Oc1cnc(C3=CCOCC3)cc12 (stereo not drawn) [compound 151]
7.3

Enter IC50 (test system BACE (Homo sapiens, UniProt P56817)) for NC1=N[C@@]2(CCO1)c1cc(-c3cccnc3F)ccc1Oc1cnc(-c3cncc(Cl)c3)cc12 [compound 141]
9.5

Enter IC50 (test system BACE (Homo sapiens, UniProt P56817)) for Cc1cc(-c2cc3c(c(F)n2)Oc2ccc(-c4cccnc4F)cc2[C@@]32COCC(N)=N2)ccn1 [Example 248]
0.6

Enter IC50 (test system BACE (Homo sapiens, UniProt P56817)) for NC1=N[C@@]2(COC1)c1cc(-c3cccnc3F)ccc1Oc1c2cc(-c2cccnc2)nc1F [compound 243]
0.3

Enter IC50 (test system BACE (Homo sapiens, UniProt P56817)) for CC1(C#Cc2cnc3c(c2)[C@]2(CCOC(N)=N2)c2cc(-c4cccnc4F)ccc2O3)COC1 [Example 61]
2.8

Enter IC50 (test system BACE (Homo sapiens, UniProt P56817)) for CC(C)(F)COc1cc(F)c2c(c1)[C@]1(CCOC(N)=N1)c1cc(-c3cccnc3F)ccc1O2 [Example 182]
2.5

Enter IC50 (test system BACE (Homo sapiens, UniProt P56817)) for NC1=N[C@]2(CCO1)c1cc(-c3cccnc3F)ccc1Oc1c(F)cc(-c3cccnc3)cc12 [compound 167]
147
